The measured values listed here are drawn from PubChem BioAssay (NCI).

Tested on: CAKI-1 renal
Experiment: NCI-60 one-dose screen, 48 h (100 = growth as untreated, 0 = no growth, -100 = all killed)
Conditions: 10 µM unless noted
The panel holds about 83,000 compounds, 20% with a hit somewhere; the sample as a whole holds those more often.
ENDPOINT: growth (%)
API: value field is a number in %; no unit string.

Ask: # query: growth of entry N#CSCc1c(Cl)cccc1Cl
Reply: 47.7

Ask: // same read-out, input: COc1ccccc1/C=C\C(=O)c1ccccc1
Reply: 83.2

Ask: // same read-out, input: COc1ccccc1OC(=O)Oc1ccccc1OC
Reply: 97.9

---

Tested on: SK-MEL-2 melanoma
Assay: NCI-60 one-dose screen, 48 h
Conditions: 10 µM unless noted
The panel holds about 83,000 compounds, 20% with a hit somewhere; the sample as a whole holds those more often. Activity calls are given as the source filed them. How the source made its calls: active means growth percent below 10; inactive means the rest.
Would you mind answering with one of these outcomes? true (1) for active, false (0) for inactive

Ask: # outcome recorded in this test, key = OC(CNc1ccnc2cc(Cl)ccc12)CNc1ccnc2cc(Cl)ccc12
Reply: false (0)

Ask: // same read-out, input: CN(C)c1ccc(C(=C2C=CC(=[N+](C)C)C=C2)c2ccc(N(C)C)cc2)cc1 (tested in a mixture with another compound)
Reply: true (1)

Ask: // same read-out, input: COc1ccccc1/C=C\C(=O)c1ccccc1
Reply: false (0)

Ask: // same read-out, input: COc1cc(NS(C)(=O)=O)ccc1Nc1c2ccccc2nc2ccccc12
Reply: false (0)

Ask: // same read-out, input: NC(=O)/C=C/C(=O)c1c(Cl)cccc1Cl
Reply: true (1)

Ask: // same read-out, input: Cc1ccc2nc(-[n+]3cc4ccccc4cc3C)ccc2c1
Reply: false (0)

Ask: // same read-out, input: Cc1ccc(N=C=C(c2ccccc2)c2ccccc2)cc1
Reply: false (0)

Ask: // same read-out, input: CC(C)(C)c1ccc(O)c(C2CCCCC2)c1
Reply: false (0)

Ask: // same read-out, input: C=C(Cl)C(=NC(C)(C)C)Nc1ccccc1C
Reply: false (0)

Ask: // same read-out, input: CN(C)c1ccc(N=Nc2cccc3ccccc23)cc1
Reply: false (0)

Ask: // same read-out, input: CC1OC2CC(=O)OC2C2=C1C(=O)c1c(O)cccc1C2=O (stereo unspecified)
Reply: true (1)
